system: Venezuelian equine encephalitis virus; experiment: organism not typed; type: cell-based; settings: Vero 76
READOUT: EC50

Q. Any idea what its EC50 is? The compound is `COc1ccc2nc3cc(Cl)ccc3c(Nc3cc(CN4CCCC4)c(O)c(CN4CCCC4)c3)c2n1`
A. 1800 nM

---

assay: in vitro; conditions: human, Caco-2, pH 7.4
READOUT: efflux ratio

Q. Any idea what its efflux ratio is? The compound is `COc1ccc2nc3cc(Cl)ccc3c(Nc3cc(CN4CCCC4)c(O)c(CN4CCCC4)c3)c2n1`
A. 0.74

---

assay: in vitro; conditions: human, microsomes
READOUT: microsomal CLint (µL/min/mg)
Give the number; µL/min/mg is assumed, so skip it.

Q. Any idea what its microsomal CLint is? The molecule is `COc1ccc2nc3cc(Cl)ccc3c(Nc3cc(CN4CCCC4)c(O)c(CN4CCCC4)c3)c2n1`
A. 4.1

---

test: in vitro; conditions: human, plasma, pH 7.4
READOUT: fraction unbound
Number only, please.

Q. Any idea what its fraction unbound is? The compound is `COc1ccc2nc3cc(Cl)ccc3c(Nc3cc(CN4CCCC4)c(O)c(CN4CCCC4)c3)c2n1`
A. 0.049

---

experiment: in vitro; settings: African green monkey, approximate CC50
READOUT: CC50

Q. Any idea what its CC50 is? The molecule is `COc1ccc2nc3cc(Cl)ccc3c(Nc3cc(CN4CCCC4)c(O)c(CN4CCCC4)c3)c2n1`
A. ~3 µM

---

system: Murine norovirus; test: microbe, parasite or virus in culture; format: cell-based; conditions: Norwalk virus, RAW267.4
READOUT: EC50

Q. Any idea what its EC50 is? The compound is `COc1ccc2nc3cc(Cl)ccc3c(Nc3cc(CN4CCCC4)c(O)c(CN4CCCC4)c3)c2n1`
A. > 40 µM

---

assay: in vivo; conditions: female, BALB/c, mouse, ip, 5 mg/kg
READOUT: Tmax (min)
Give the number; min is assumed, so skip it.

Q. Any idea what its Tmax is? The compound is `COc1ccc2nc3cc(Cl)ccc3c(Nc3cc(CN4CCCC4)c(O)c(CN4CCCC4)c3)c2n1`
A. 4.98

---

test: in vivo; conditions: female, BALB/c, mouse, ip, 5 mg/kg
READOUT: Cmax (ng/mL)
Give the number; ng/mL is assumed, so skip it.

Q. Any idea what its Cmax is? The compound is `COc1ccc2nc3cc(Cl)ccc3c(Nc3cc(CN4CCCC4)c(O)c(CN4CCCC4)c3)c2n1`
A. 54

---

test system: Influenza A virus H1N1; test: microbe, parasite or virus in culture; format: cell-based; settings: Influenza A virus, H1N1, MDCK
READOUT: EC50 (µM)
Give the number; µM is assumed, so skip it.

Q. Any idea what its EC50 is? The compound is COc1ccc2nc3cc(Cl)ccc3c(Nc3cc(CN4CCCC4)c(O)c(CN4CCCC4)c3)c2n1 [Pyronaridine]
A. 3.2

---

test system: Vaccinia Virus; experiment: microbe, parasite or virus in culture; format: cell-based; conditions: Orthopoxvirus vaccinia, HFF
pEC50: −log10 of the molar value.
READOUT: pEC50

Q. Any idea what its pEC50 is? The compound is `COc1ccc2nc3cc(Cl)ccc3c(Nc3cc(CN4CCCC4)c(O)c(CN4CCCC4)c3)c2n1`
A. < 5.92

---

molecular target: CYP2D6 (Homo sapiens, UniProt P10635)
Sequence (P10635 whole entry): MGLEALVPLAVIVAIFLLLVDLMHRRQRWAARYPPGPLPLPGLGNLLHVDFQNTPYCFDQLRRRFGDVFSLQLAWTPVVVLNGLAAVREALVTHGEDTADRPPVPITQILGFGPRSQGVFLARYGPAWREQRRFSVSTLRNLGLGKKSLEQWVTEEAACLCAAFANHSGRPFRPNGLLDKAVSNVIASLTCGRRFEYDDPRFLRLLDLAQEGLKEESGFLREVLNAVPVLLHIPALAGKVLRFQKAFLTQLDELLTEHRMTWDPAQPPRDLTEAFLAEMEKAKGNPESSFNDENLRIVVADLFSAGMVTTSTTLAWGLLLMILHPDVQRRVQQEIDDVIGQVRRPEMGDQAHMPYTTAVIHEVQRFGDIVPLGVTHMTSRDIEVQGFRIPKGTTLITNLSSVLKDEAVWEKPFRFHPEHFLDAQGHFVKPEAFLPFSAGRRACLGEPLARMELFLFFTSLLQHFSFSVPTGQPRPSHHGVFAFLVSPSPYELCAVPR
READOUT: IC50 (µM)
Give the number; µM is assumed, so skip it.

Q. Any idea what its IC50 is? The molecule is `COc1ccc2nc3cc(Cl)ccc3c(Nc3cc(CN4CCCC4)c(O)c(CN4CCCC4)c3)c2n1`
A. 2.23

---

molecular target: CYP2C19 (Homo sapiens, UniProt P33261)
Sequence (P33261 whole entry): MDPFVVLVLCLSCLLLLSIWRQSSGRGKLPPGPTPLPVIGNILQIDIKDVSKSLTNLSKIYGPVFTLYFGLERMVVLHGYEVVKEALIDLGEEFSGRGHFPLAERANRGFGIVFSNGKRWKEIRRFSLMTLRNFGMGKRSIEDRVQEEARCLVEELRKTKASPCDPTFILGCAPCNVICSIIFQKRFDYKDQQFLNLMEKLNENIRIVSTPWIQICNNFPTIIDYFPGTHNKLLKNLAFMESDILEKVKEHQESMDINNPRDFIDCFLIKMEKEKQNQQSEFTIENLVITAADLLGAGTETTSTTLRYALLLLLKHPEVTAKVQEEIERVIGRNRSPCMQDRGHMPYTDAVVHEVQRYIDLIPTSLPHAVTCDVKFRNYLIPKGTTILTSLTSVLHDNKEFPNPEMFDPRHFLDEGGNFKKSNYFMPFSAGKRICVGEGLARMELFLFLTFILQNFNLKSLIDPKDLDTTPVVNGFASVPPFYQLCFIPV
READOUT: IC50

Q. Any idea what its IC50 is? The compound is `COc1ccc2nc3cc(Cl)ccc3c(Nc3cc(CN4CCCC4)c(O)c(CN4CCCC4)c3)c2n1`
A. > 50 µM

---

assay: in vivo; conditions: both, BALB/c, mouse, ip
READOUT: MTD (mg/kg)
Give the number; mg/kg is assumed, so skip it.

Q. Any idea what its MTD is? The compound is `COc1ccc2nc3cc(Cl)ccc3c(Nc3cc(CN4CCCC4)c(O)c(CN4CCCC4)c3)c2n1`
A. 100

---

experiment: in vitro; conditions: human, Caco-2, pH 7.4
READOUT: Papp A→B (nm/s)
Give the number; nm/s is assumed, so skip it.

Q. Any idea what its Papp A→B is? The compound is `COc1ccc2nc3cc(Cl)ccc3c(Nc3cc(CN4CCCC4)c(O)c(CN4CCCC4)c3)c2n1`
A. 64.6

---

experiment: in vivo; details: male, BALB/c, mouse, ip, 25 mg/kg
READOUT: Cmax
Could you write the number and then its unit?

Q. Any idea what its Cmax is? The compound is `COc1ccc2nc3cc(Cl)ccc3c(Nc3cc(CN4CCCC4)c(O)c(CN4CCCC4)c3)c2n1`
A. 115 ng/mL

---

test system: Ebola virus (Zaire strain); experiment: microbe, parasite or virus in culture; format: cell-based; details: Zaire ebolavirus, Vero 76
pEC50: −log10 of the molar value.
READOUT: pEC50

Q. Any idea what its pEC50 is? The compound is `COc1ccc2nc3cc(Cl)ccc3c(Nc3cc(CN4CCCC4)c(O)c(CN4CCCC4)c3)c2n1`
A. < 5.89

---

test: in vitro; details: dog
READOUT: CC50 (µM)
Give the number; µM is assumed, so skip it.

Q. Any idea what its CC50 is? The compound is `COc1ccc2nc3cc(Cl)ccc3c(Nc3cc(CN4CCCC4)c(O)c(CN4CCCC4)c3)c2n1`
A. 3.2

---

assay: in vivo; details: female, BALB/c, mouse, ip, 25 mg/kg
READOUT: AUC(0-t) (ng·h/mL)
Give the number; ng·h/mL is assumed, so skip it.

Q. Any idea what its AUC(0-t) is? The compound is `COc1ccc2nc3cc(Cl)ccc3c(Nc3cc(CN4CCCC4)c(O)c(CN4CCCC4)c3)c2n1`
A. 956

Values were extracted from paper PMC6894882.
